Tested on: PPARg homodimer (NR concentration 180 nM)
Experiment: PBM binding z-score (relative to random genomic background probes); higher = stronger binding; sequences stand for … in GC…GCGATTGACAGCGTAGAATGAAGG
Let's look at some sequences and their measured PBM binding z-score.

| item_sequence | assayed_system | PBM binding z-score |
| --- | --- | --- |
| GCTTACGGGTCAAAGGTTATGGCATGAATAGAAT | PPARg homodimer (NR concentration 180 nM) | 3.11 |
| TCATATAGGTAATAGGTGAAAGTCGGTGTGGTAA | PPARg homodimer (NR concentration 180 nM) | 1.61 |
| CGAACTAGGTCACCAGAACAGTGAAGAGGTTGGA | PPARg homodimer (NR concentration 180 nM) | 1.64 |
| CTCGAAAGGTCGTGGTCAGGTGAGTATACCAAAC | PPARg homodimer (NR concentration 180 nM) | 2.21 |
| CGAACTAGGTGACCAGGACAGTGAAGAGGTTGGA | PPARg homodimer (NR concentration 180 nM) | -0.217 |
| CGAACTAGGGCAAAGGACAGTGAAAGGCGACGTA | PPARg homodimer (NR concentration 180 nM) | 0.584 |
| CTATGTACGTTAAGGGGGTCATTCAGTTTGAAAG | PPARg homodimer (NR concentration 180 nM) | 3.11 |
| AGAATGAGGTTAGCAAAGATCAGGGAAACGCTTG | PPARg homodimer (NR concentration 180 nM) | -0.323 |
| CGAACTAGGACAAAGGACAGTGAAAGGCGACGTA | PPARg homodimer (NR concentration 180 nM) | 0.327 |
| ATATGTGGGTTATCGGGTCATTCAGTTTGCGCAT | PPARg homodimer (NR concentration 180 nM) | 3.07 |
| CGAACTAGCTCAAAGGACAGTGAAAGGCGACGTA | PPARg homodimer (NR concentration 180 nM) | 0.163 |
| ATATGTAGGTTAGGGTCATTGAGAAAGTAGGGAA | PPARg homodimer (NR concentration 180 nM) | 2.67 |
| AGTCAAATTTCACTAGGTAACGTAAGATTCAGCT | PPARg homodimer (NR concentration 180 nM) | 0.334 |
| GCTGCTAGGTCAGGTTGGTCTGCTAACGGGTACG | PPARg homodimer (NR concentration 180 nM) | 0.673 |
| CCTTACGGGTCTCTCCAGGTTATAGCATCGGAGT | PPARg homodimer (NR concentration 180 nM) | 0.354 |
| GATTACGGGTCAAAGGTTATAGCATGAATAGAAT | PPARg homodimer (NR concentration 180 nM) | 2.97 |
| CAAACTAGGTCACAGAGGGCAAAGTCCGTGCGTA | PPARg homodimer (NR concentration 180 nM) | 1.95 |
| GCTAGTTTGTCAGTAAAAGGTCACACACCGGTCG | PPARg homodimer (NR concentration 180 nM) | 4.4 |
| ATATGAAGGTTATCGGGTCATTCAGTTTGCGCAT | PPARg homodimer (NR concentration 180 nM) | 2.47 |
| CCAGAAAGGTGAAAGGTAACTCAGTCTGGTACGC | PPARg homodimer (NR concentration 180 nM) | 1.51 |
| ATCTCTAGGTAAAGTTCAGCGAAAGATCGATAGA | PPARg homodimer (NR concentration 180 nM) | 1.49 |
| CCGAGTAGGTTACGAGGGGGCAGTCAGTGCGAAT | PPARg homodimer (NR concentration 180 nM) | 2.79 |
| CTATGTAGGTTAAGGGGGTCATTCTGTTTGAAAG | PPARg homodimer (NR concentration 180 nM) | 3.03 |
| TCTAGTTGGTCAAAGGCCACACACTCGAAATGCG | PPARg homodimer (NR concentration 180 nM) | 1.01 |
| CCATGTAGGTTAAGGGGGTCATTCAGTTTGAAAG | PPARg homodimer (NR concentration 180 nM) | 4.47 |
| CCGAGTAGGTTACGAGGGGGTATTCAGTGCGAAT | PPARg homodimer (NR concentration 180 nM) | 1.24 |
| GCTGCTCGGTCAACTGATGGTCAGCTAAAGCTCG | PPARg homodimer (NR concentration 180 nM) | -0.156 |
| CGTACTAGGTCACCAGGACAGTGAAGAGGTTGGA | PPARg homodimer (NR concentration 180 nM) | 3.11 |
| CCGAGTACGTTACGAGGGGGCATTCAGTGCGAAT | PPARg homodimer (NR concentration 180 nM) | 1.37 |
| CCTACTGGGCCACTCAGAGGTCATTGATCATATG | PPARg homodimer (NR concentration 180 nM) | 1.94 |
| AGTCAAATTTCATCTAGGTAACGTAAGATATGCT | PPARg homodimer (NR concentration 180 nM) | 0.098 |
| TGACTGAGGTTAAAGATCAGGGAACGTGGCGTCG | PPARg homodimer (NR concentration 180 nM) | 0.216 |
| GCTCGGGGGACAAGGTCAGAGCTTTGTCCGTAGA | PPARg homodimer (NR concentration 180 nM) | 1.58 |
| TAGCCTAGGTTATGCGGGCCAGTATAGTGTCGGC | PPARg homodimer (NR concentration 180 nM) | -0.501 |
| CGAACTATGTCAAAGGACAGTGAAAGGCGACGTA | PPARg homodimer (NR concentration 180 nM) | 0.527 |
| CTATGTAGGTTATGGGGGTCATTCAGTTTGAAAG | PPARg homodimer (NR concentration 180 nM) | 4.13 |
| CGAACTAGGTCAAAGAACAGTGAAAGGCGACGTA | PPARg homodimer (NR concentration 180 nM) | 0.602 |
| CCAGACAGGTGAAAGGTAACTCCGTCTGGTACGC | PPARg homodimer (NR concentration 180 nM) | 1.15 |
| CGAACTAGGTCACCAGGACATTGAAGAGGTTGGA | PPARg homodimer (NR concentration 180 nM) | 1.53 |
| CCTCGGAGGACAACAGGAGGTCAAAGCTGCCAGA | PPARg homodimer (NR concentration 180 nM) | 2.31 |
| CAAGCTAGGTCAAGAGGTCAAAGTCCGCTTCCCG | PPARg homodimer (NR concentration 180 nM) | 7.12 |
| CTATGTAGGTTAATGGGGTCATTCAGTTTGAAAG | PPARg homodimer (NR concentration 180 nM) | 3.7 |
| AAAATGAGGTTAAGATCAGGGAAACAGAATACAT | PPARg homodimer (NR concentration 180 nM) | 1.85 |
| ATATGTAGGGTAGGGTCATTCAGAAAGTAGGGAA | PPARg homodimer (NR concentration 180 nM) | 2.93 |
| GCTCGGAGGACAAGGTCAGGGCTTTGTCCGTAGA | PPARg homodimer (NR concentration 180 nM) | 0.661 |
| ACTCGGAGGATAAAGGTCAGAGCTACGCCAGTGA | PPARg homodimer (NR concentration 180 nM) | 4.61 |
| CGAACTAGGTCCAAGGACAGTGAAAGGCGACGTA | PPARg homodimer (NR concentration 180 nM) | -0.32 |
| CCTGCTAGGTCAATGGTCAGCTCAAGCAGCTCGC | PPARg homodimer (NR concentration 180 nM) | 1.12 |
| TCGAGTAGGTTACGGGGGCATCCAGGGATGAAGA | PPARg homodimer (NR concentration 180 nM) | 2.37 |
| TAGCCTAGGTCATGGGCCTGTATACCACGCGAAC | PPARg homodimer (NR concentration 180 nM) | 1.45 |
| ATATGTAGGTTAGGGTCATTCCGAAAGTAGGGAA | PPARg homodimer (NR concentration 180 nM) | 2.67 |
